# System: LNCaP cells
# assay overview: Inhibition of LNCaP proliferation (CellTiter-Glo)
# Type: cell-based
# applied conditions: Homo sapiens, 144 h, 0.1 nM R1881, six days, read-out: Max (maximum proliferation inhibition rate)
So basically: Emax at 60% or higher? That is 1.0. Lower than 60%? That is 0.0.

q: Could you please find out whether C[C@H]1CC2(CCN(c3ccc(C(=O)N4CCC(CN5CCN(c6cccc(NC7CCC(=O)NC7=O)c6)CC5)CC4)cc3)CC2)CN1c1ccc(C#N)c(C(F)(F)F)c1 (some centres unmarked) has Emax that meets 60% or exceeds it?
a: 0.0

q: Could you please find out whether C[C@H]1CC2(CCN(c3ccc(C(=O)N4CCC(CN5CCN(c6cccc(NC7CCC(=O)NC7=O)c6)CC5)CC4)nc3)CC2)CN1c1ccc(C#N)c(Cl)c1 (some centres unmarked) has Emax that meets 60% or exceeds it?
a: 1.0

q: Could you please find out whether C[C@H]1CC2(CCN(c3ccc(C(=O)N4CCC(CN5CCC(c6ccc(NC7CCC(=O)NC7=O)cc6F)CC5)CC4)cc3)CC2)CN1c1ccc(C#N)c(Cl)c1 (some centres unmarked) has Emax that meets 60% or exceeds it?
a: 1.0

q: Could you please find out whether C[C@H]1CC2(CCN(c3ccc(C(=O)N4CCC5(CC4)CC(N4CCN(c6cccc(NC7CCC(=O)NC7=O)c6)CC4)C5)cc3F)CC2)CN1c1ccc(C#N)c(Cl)c1 (some centres unmarked) has Emax that meets 60% or exceeds it?
a: 0.0

---

Would you kindly list Dmax for each of these compounds?
# test target: androgen receptor (AR) (Homo sapiens, UniProt P10275, T878A)
# Construct: host or cells: LNCaP human prostate cancer cells
# Sequence (P10275 whole entry T878A): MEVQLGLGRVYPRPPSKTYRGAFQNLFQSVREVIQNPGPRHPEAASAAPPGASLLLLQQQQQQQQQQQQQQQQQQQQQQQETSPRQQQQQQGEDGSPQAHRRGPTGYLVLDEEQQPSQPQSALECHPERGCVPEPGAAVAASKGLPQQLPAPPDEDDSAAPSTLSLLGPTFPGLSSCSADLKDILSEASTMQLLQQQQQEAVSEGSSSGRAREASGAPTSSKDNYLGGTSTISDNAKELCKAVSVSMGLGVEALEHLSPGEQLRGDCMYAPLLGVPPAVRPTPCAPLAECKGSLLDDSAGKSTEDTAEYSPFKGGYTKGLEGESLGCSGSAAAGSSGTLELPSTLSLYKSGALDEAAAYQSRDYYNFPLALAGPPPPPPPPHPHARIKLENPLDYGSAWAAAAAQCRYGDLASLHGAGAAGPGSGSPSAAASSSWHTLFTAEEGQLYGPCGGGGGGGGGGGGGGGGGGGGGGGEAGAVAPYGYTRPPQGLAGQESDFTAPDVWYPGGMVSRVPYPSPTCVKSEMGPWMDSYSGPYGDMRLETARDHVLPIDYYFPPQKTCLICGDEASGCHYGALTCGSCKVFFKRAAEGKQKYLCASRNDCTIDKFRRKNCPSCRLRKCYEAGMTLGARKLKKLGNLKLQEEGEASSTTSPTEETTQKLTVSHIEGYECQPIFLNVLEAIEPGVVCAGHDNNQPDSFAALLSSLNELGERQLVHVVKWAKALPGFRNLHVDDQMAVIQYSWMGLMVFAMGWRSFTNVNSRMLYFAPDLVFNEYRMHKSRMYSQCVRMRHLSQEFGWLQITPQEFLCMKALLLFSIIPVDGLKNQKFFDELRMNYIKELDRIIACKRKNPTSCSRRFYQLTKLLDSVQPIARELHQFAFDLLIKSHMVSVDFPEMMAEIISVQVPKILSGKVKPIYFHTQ
# assay overview: Degradation activity on androgen receptor in LNCaP cells (AR ELISA)
# Format: cell-based
# applied conditions: 0.1 nM R1881, 24 hours, read-out: Max (maximum AR degradation rate)
Quick note: give the figure in %, leave out the unit.

q: State its Dmax for this compound: `C[C@H]1CC2(CCN(c3ccc(C(=O)N4CCC5(CCC(N6CCN(c7ccc(N8CCC(=O)NC8=O)cc7)CC6)CC5)CC4)cc3)CC2)CN1c1ccc(C#N)c(Cl)c1`
a: 93

q: State its Dmax for this compound: C[C@H]1CC2(CCN(c3ccc(C(=O)N4CCC(CN5CCC(c6cccc(NC7CCC(=O)NC7=O)c6)CC5)CC4)nn3)CC2)CN1c1ccc(C#N)c(Cl)c1 (stereo partly drawn)
a: 92

q: State its Dmax for this compound: C[C@H]1CC2(CCN(c3ccc(C(=O)N4CCC(CN5CCN(c6cccc(NC7CCC(=O)NC7=O)c6)CC5)CC4)nn3)CC2)CN1c1ccc(C#N)c(Cl)c1 (stereo partly drawn)
a: 96

---

# assay overview: Pharmacokinetic evaluation in SD rats
# applied conditions: both sexes, rat, in vivo, po, i.g., 2.0 mg/kg, read-out: Plasma concentration Cmax
result type: Cmax (ng/mL)
Quick note: give the figure in ng/mL, leave out the unit.

q: State its Cmax for this compound: C[C@H]1CC2(CCN(c3ccc(C(=O)N4CCC(CN5CCN(c6cc(NC7CCC(=O)NC7=O)ccc6F)CC5)CC4)cc3)CC2)CN1c1ccc(C#N)c(Cl)c1 (stereo partly shown) [Example 23]
a: 81.6

q: State its Cmax for this compound: C[C@H]1CC2(CCN(c3ccc(C(=O)N4CCC(CN5CCN(c6cccc(NC7CCC(=O)NC7=O)c6)CC5)CC4)cc3)CC2)CN1c1ccc(C#N)c(Cl)c1 (stereo partly shown) [Example 11]
a: 69.4

q: State its Cmax for this compound: C[C@H]1CC2(CCN(c3ccc(C(=O)N4CCC(CN5CCN(c6cccc(NC7CCC(=O)NC7=O)c6)CC5)CC4)nc3)CC2)CN1c1ccc(C#N)c(Cl)c1 (stereo partly shown) [Example 12]
a: 37.4

q: State its Cmax for this compound: C[C@H]1CC2(CCN(c3ccc(C(=O)N4CCC5(CC4)CC(N4CCN(c6ccc(N7CCC(=O)NC7=O)cc6)CC4)C5)cc3)CC2)CN1c1ccc(C#N)c(Cl)c1 [Example 28]
a: 25.5
